Target: T1, cynomolgus (Macaca fascicularis) ST2L extracellular domain with C-terminal His6 tag (Macaca fascicularis (cynomolgus), UniProt Q01638 19-321 (human entry))
T1 construct: also called cyno ST2L-ECD; cynoST2L-ECD
T1 chain: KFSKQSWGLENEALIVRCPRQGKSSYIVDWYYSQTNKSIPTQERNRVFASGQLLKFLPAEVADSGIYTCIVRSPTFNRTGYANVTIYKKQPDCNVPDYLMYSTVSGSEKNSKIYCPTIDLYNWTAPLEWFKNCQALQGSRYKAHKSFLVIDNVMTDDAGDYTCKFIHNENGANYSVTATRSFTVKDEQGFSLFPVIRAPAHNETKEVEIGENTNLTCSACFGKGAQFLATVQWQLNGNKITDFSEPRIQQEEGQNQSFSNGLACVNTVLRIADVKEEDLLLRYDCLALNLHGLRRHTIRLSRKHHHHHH
Test: SPR, mAb captured, ST2L-ECD in solution
MEASURED METRIC: koff (s⁻¹)

binder="STLM210 (antibody, V domains shown, frameworks VH3-23 / Vk-L6) VH: EVQLLESGGGLVQPGGSLRLSCAASGFTFSDDAMIWVRQAPGKGLEWVSYIGGNGGTTYYADSVKGRFTISRDNSKNTLYLQMNSLRAEDTAVYYCARDPWSTEGSFFVLDYWGQGTLVTVSS VL: EIVLTQSPATLSLSPGERATLSCRASQSVDDDLAWYQQKPGQAPRLLIYDASNRATGIPARFSGSGSGTDFTLTISSLEPEDFAVYYCQQYNDAITFGQGTKVEIK" value_measured=0.000528
binder="STLM218 (antibody, V domains shown, frameworks VH3-23 / Vk-L6) VH: EVQLLESGGGLVQPGGSLRLSCAASGFTFSVDSMFWVRQAPGKGLEWVSSIEGNGGATYYADSVKGRFTISRDNSKNTLYLQMNSLRAEDTAVYYCARDPWSTEGSFFVLDYWGQGTLVTVSS VL: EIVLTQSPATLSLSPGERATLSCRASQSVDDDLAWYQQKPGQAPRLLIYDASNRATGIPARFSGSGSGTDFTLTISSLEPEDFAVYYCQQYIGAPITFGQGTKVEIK" value_measured=0.000265
binder="STLM207 (antibody, V domains shown, frameworks VH3-23 / Vk-L6) VH: EVQLLESGGGLVQPGGSLRLSCAASGFTFSSYDMIWVRQAPGKGLEWVSTIRGEGGTTAYADSVKGRFTISRDNSKNTLYLQMNSLRAEDTAVYYCARDPWSTEGSFFVLDYWGQGTLVTVSS VL: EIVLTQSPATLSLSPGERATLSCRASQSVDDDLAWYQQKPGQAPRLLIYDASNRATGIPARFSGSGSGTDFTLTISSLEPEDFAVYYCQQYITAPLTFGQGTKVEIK" value_measured=0.00207
